- Experimental system: Tyrosine-protein kinase ABL1 (Homo sapiens, UniProt P00519)
- Sequence (P00519 whole entry): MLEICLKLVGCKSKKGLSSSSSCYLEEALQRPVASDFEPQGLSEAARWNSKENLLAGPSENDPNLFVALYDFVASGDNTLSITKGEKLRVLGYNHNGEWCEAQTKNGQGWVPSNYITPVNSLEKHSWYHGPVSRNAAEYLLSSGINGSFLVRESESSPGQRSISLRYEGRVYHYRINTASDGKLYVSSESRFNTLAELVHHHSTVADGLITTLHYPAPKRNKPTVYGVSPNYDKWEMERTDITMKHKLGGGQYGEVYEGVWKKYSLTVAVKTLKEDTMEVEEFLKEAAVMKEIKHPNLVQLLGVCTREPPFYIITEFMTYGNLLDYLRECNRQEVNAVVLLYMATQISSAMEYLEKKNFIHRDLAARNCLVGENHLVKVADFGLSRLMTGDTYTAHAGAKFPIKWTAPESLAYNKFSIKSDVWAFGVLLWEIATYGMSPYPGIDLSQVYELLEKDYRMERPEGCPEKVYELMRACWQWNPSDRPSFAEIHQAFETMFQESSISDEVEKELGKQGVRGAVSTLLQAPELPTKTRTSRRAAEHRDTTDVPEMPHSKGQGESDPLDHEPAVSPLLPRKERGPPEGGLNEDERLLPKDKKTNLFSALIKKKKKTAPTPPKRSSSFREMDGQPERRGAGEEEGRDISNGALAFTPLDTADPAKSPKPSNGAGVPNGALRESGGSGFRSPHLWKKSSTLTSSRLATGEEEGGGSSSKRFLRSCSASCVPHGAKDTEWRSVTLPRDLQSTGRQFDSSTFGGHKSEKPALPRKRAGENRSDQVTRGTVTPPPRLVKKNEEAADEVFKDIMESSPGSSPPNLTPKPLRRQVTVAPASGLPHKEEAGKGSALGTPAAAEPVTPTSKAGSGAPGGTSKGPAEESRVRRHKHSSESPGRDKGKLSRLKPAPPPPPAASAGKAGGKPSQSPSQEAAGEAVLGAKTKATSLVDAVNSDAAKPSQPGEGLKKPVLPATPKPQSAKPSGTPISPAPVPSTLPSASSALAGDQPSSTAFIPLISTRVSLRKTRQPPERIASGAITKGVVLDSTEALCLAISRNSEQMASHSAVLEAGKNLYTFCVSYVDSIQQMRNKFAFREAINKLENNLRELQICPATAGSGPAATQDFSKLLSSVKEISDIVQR
- Assay overview: Radio ABL1 (64-515) Assay: For determination of ABL kinase activity, the radiometric filter-binding assay was used. The assay was performed by mixing 10 uL of the compound pre-diluted with 10 uL of ATP (20 uM ATP with 0.1 uCi [γ-33P]-ATP) with the phospho-acceptor peptide poly[Ala6Glu2LysHBr5Tyr1]=polyAEKY) in 20 mM Tris/HCl pH 7.5, 1 mM DTT, 10 mM MgCl2, 0.01 mM Na3VO4, 50 mM NaCl. 10 uL of …
- Description: 10 uL of enzyme (ranging between 5 nM to 20 nM) was added to initiate the reaction. Pre-incubation of enzyme with compounds (when stated) was performed by exposing the enzyme to compounds prior to addition of the substrate mixture (ATP and/or peptide substrate). […] Filter-plates were washed 3x with 0.5% H3PO4, followed by addition of 30 uL scintillation cocktail (Microscint, Perkin Elmer) per well and then analysed in a TopCount NXT scintillation counter (Perkin Elmer).
Assay endpoint: IC50 (nM)

Smiles data: Cc1ccc(-c2cc(C(=O)Nc3ccc(OC(F)(F)F)cc3)cnc2N2CC[C@H](N)C2)cn1
Assay endpoint: IC50
Result units: nM
Value reported: 7
--
Smiles data: O=C(Nc1ccc(OC(F)(F)F)cc1)c1cnc(N2CC[C@H](CO)C2)c(-c2cncc(F)c2)c1
Assay endpoint: IC50
Result units: nM
Value reported: 6.3
